B1: VH:VL chains; a variant is named by its letters at X, in order (parent)
chain 1: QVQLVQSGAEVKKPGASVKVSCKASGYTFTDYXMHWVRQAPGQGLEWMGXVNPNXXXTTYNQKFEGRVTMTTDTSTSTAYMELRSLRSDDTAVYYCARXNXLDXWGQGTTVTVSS
chain 2: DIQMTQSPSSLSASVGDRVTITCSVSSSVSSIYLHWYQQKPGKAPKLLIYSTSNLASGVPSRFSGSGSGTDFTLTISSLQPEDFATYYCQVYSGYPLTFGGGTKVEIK

# Variants of: B1
# Test Details: yeast display scFab, FACS + sequencing
Parameter Measured: non-specific binding call

mutation_notation=YKRESAAV assay_value=binds
mutation_notation=SGREGDWD assay_value=binds
mutation_notation=VTERGSLD assay_value="no binding"
mutation_notation=FATKGAWV assay_value=binds
mutation_notation=YRGRDDLA assay_value="no binding"
mutation_notation=VRRGSSLF assay_value=binds
mutation_notation=DAEKGAWA assay_value="no binding"
mutation_notation=YRGAGSAD assay_value=binds
mutation_notation=YKAGDVSV assay_value=binds
mutation_notation=YRERGAGF assay_value=binds
mutation_notation=YKGGGAGA assay_value=binds
mutation_notation=FRGRDSVA assay_value=binds
mutation_notation=VTGTGSLV assay_value="no binding"
mutation_notation=FRRGGAAA assay_value=binds
mutation_notation=YRKGSSGA assay_value=binds
mutation_notation=VTTRGAVA assay_value="no binding"
mutation_notation=YTGTSAVA assay_value="no binding"
mutation_notation=YTGTSDVS assay_value="no binding"
mutation_notation=STTGSASF assay_value="no binding"
mutation_notation=YRKGGAAS assay_value=binds
mutation_notation=YEGGGDWF assay_value="no binding"
mutation_notation=SEARSSSD assay_value="no binding"
